- target: RORc ligand binding domain (Homo sapiens, UniProt P51449)
- Construct: host or cells: E. coli
- Sequence (P51449 269-508 limits assumed): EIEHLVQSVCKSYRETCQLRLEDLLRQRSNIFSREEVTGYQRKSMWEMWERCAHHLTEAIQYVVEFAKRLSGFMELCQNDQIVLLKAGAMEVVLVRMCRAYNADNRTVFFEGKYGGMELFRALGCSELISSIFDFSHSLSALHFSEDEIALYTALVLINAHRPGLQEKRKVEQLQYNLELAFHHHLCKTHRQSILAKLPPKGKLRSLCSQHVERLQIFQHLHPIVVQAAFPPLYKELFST
- experiment: In Vitro RORc Ligand Binding Assay (25-[3H]hydroxycholesterol radioligand filtration)
- details: In Vitro RORc Ligand Binding Assay; Table 4; read-out: RORc IC50
observationType: IC50 (nM)

Illustrative cases are given below, each with its answer.
compound | resultUnit | IC50
C[C@H]1CCC(c2ccccc2)S(=O)(=O)N1Cc1ccc(C(=O)N2CCCC2CO)cc1 (stereo partly drawn) [Example 290] | nM | 1500
COC(=O)[C@@H]1CN(C(C)=O)CCN1c1ccc(CN2[C@@H](C)CCC(c3ccccc3)S2(=O)=O)c(F)c1 (stereo partly drawn) [Example 392] | nM | 13
CC(=O)N1CCN(c2ccc(CN3[C@@H](C)CC[C@@H](c4ccccc4Cl)S3(=O)=O)c(F)c2)CC1 (single isomer, unassigned) [Example 204] | nM | 52

a. C[C@H]1CCC(c2ccccc2)S(=O)(=O)N1Cc1ccc(OC2CCS(=O)(=O)CC2)cc1F (single isomer, unassigned) [Example 39]
b. CC(=O)N1CCN(c2ccc(CN3[C@@H](C)CCC(c4cccc(C)c4)S3(=O)=O)c(F)c2)CC1 (single isomer, unassigned) [Example 192]
**Query** Returns: the label, a or b , whose recorded IC50 is the lower number. In your reply, give the label of the chosen option.
**Result** b
(b: 6 nM, a: 119 nM)

* * *

- target: RORc ligand binding domain (Homo sapiens)
- Construct: host or cells: E. coli
- experiment: In Vitro RORc Ligand Binding Assay (25-[3H]hydroxycholesterol radioligand filtration)
- details: In Vitro RORc Ligand Binding Assay; Table 4; read-out: RORc IC50
pIC50: −log10 of the molar value.
observationType: pIC50

compound | pIC50
CC(=O)N1CCN(c2ccc(CN3C(C)CCCC(c4ccccc4)S3(=O)=O)c(F)c2)CC1 (single isomer, unassigned) [Example 328] | 5.96

1. CC(=O)N1CCN(c2ccc(CN3C4CCCC4CC(c4ccccc4)S3(=O)=O)c(F)c2)CC1 (single isomer, unassigned) [Example 252]
2. CC(=O)N1CCN(c2ccc(CN3[C@@H](C)CCC(c4ccccc4)S3(=O)=O)c(F)c2)C[C@@H]1C(=O)N(C)C (stereo partly drawn) [Example 384]
**Query** Short answer wanted: higher pIC50, 1 or 2 ? In your reply, give the label of the chosen option.
**Result** 1

* * *

- target: RORc ligand binding domain (Homo sapiens, UniProt P51449)
- Construct: host or cells: E. coli
- experiment: In Vitro RORc Ligand Binding Assay (25-[3H]hydroxycholesterol radioligand filtration)
- details: In Vitro RORc Ligand Binding Assay; Table 4; read-out: RORc IC50
observationType: IC50 (nM)

compound | IC50 (nM)
C[C@H]1CCC(c2ccccc2)S(=O)(=O)N1Cc1ccc(N[C@H]2CC[C@@H](C#N)CC2)cc1F (single isomer, unassigned) [Example 110] | 35

A. CC(=O)N1CCN(c2ccc(CN3[C@@H](C)CCCC(c4ccccc4)S3(=O)=O)c(F)c2)CC1 (single isomer, unassigned) [Example 320]
B. CC(=O)N1CCN(c2ccc(CN3[C@H](C)CCC(c4ccccc4)S3(=O)=O)c(F)c2)CC1 (single isomer, unassigned) [Example 20]
**Query** Returns: the label, A or B , whose recorded IC50 is the lower number. In your reply, give the label of the chosen option.
**Result** B
(B: 26 nM, A: 1920 nM)

* * *

- target: RORc ligand binding domain (Homo sapiens)
- Construct: host or cells: E. coli
- Sequence (P51449 269-508 limits assumed): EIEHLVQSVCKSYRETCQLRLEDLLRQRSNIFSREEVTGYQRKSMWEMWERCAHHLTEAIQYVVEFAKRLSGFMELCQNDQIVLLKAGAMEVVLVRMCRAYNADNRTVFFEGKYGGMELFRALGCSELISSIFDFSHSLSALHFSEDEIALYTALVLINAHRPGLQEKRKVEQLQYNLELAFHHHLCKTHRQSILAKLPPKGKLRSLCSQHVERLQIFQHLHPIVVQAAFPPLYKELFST
- experiment: In Vitro RORc Ligand Binding Assay (25-[3H]hydroxycholesterol radioligand filtration)
- details: read-out: RORc IC50
observationType: IC50 (µM)

Illustrative cases are given below, each with its answer.
compound | resultUnit | IC50
C[C@H]1CCC(c2ccccc2)S(=O)(=O)N1Cc1ccc(N2CCN3C(=O)CC[C@H]3C2)cc1F (stereo partly drawn) | µM | 0.032
C[C@H]1CCC(c2ccccc2)S(=O)(=O)N1Cc1ccc(NC(=O)CC2CCOCC2)cc1F (stereo partly drawn) | µM | 0.123
C[C@H]1CCC(c2ccccc2)S(=O)(=O)N1Cc1ccc(N2CCC(c3cn[nH]c3)CC2)cc1 (stereo partly drawn) | µM | 0.006
C[C@H]1CCC(c2ccccc2)S(=O)(=O)N1Cc1ccc(OCC2(C)COC2)cc1 (stereo partly drawn) | µM | 0.656
COC(=O)[C@H]1CN(C(C)=O)CCN1c1ccc(CN2[C@@H](C)CCC(c3ccccc3)S2(=O)=O)c(F)c1 (stereo partly drawn) | µM | 0.368

A. C[C@H]1CCC(c2ccccc2)S(=O)(=O)N1Cc1ccc(N2CCC(N3CCCC3=O)CC2)cc1F (stereo partly drawn)
B. C[C@H]1CCC(c2ccccc2)S(=O)(=O)N1Cc1ccc(N2CCN3C(=O)OCC3C2)cc1F (stereo partly drawn) [Example 400]
**Query** Returns: the label, A or B , whose recorded IC50 is the lower number. In your reply, give the label of the chosen option.
**Result** B
(B: 0.095 µM, A: 0.878 µM)

P. C[C@H]1CCC(c2ccccc2)S(=O)(=O)N1Cc1ccc(N2CCN3C(=O)OCC3C2)cc1F (single isomer, unassigned) [Example 420]
Q. C[C@H]1CCC(c2ccccc2)S(=O)(=O)N1Cc1ccc(N2CC(n3cnnc3)C2)cc1F (single isomer, unassigned) [Example 429]
R. C[C@H]1CCC(c2ccccc2)S(=O)(=O)N1Cc1ccc(OCC2CCOCC2)cc1 (stereo partly drawn)
S. C[C@H]1CCC(c2ccccc2)S(=O)(=O)N1Cc1ccc(OC[C@@H]2CCC(=O)N2)cc1 (single isomer, unassigned)
T. C[C@H]1CCC(c2ccccc2)S(=O)(=O)N1Cc1ccc(N2CCn3c(cnc3C#N)C2)cc1F (stereo partly drawn)
**Query** Please rank these compounds by IC50 in descending order. List the labels, following the order given in the request.
**Result** S, Q, T, R, P

* * *

- target: RORc ligand binding domain (Homo sapiens)
- Construct: host or cells: E. coli
- experiment: In Vitro RORc Ligand Binding Assay (25-[3H]hydroxycholesterol radioligand filtration)
- details: In Vitro RORc Ligand Binding Assay; Table 4; read-out: RORc IC50
observationType: IC50 (nM)

Illustrative cases are given below, each with its answer.
compound | target | observationType | reported
CC(=O)N1CCN(c2ccc(CN3[C@H](C)CCC(c4ccccc4)S3(=O)=O)cc2)CC1 (single isomer, unassigned) | RORc ligand binding domain (Homo sapiens) | IC50 | 299
C[C@H]1CCC(c2ccccc2)S(=O)(=O)N1Cc1ccc(N2CCC(c3nncn3C)CC2)cc1F (single isomer, unassigned) [Example 138] | RORc ligand binding domain (Homo sapiens) | IC50 | 1100
C[C@H]1CCC(c2ccccc2)S(=O)(=O)N1Cc1ccc(N2CCN(C3=CC(=O)CCC3)CC2)cc1F (stereo partly shown) | RORc ligand binding domain (Homo sapiens) | IC50 | 108
C[C@H]1CCC(c2ccccc2)S(=O)(=O)N1Cc1ccc(N2CCC(C(N)=O)CC2)cc1F (single isomer, unassigned) | RORc ligand binding domain (Homo sapiens) | IC50 | 85
C[C@H]1CCC(c2ccccc2)S(=O)(=O)N1Cc1ccc(C(=O)NC2CCS(=O)(=O)C2)cc1 (stereo partly shown) | RORc ligand binding domain (Homo sapiens) | IC50 | 3220

a. O=S1(=O)C(c2ccccc2)CCCCN1Cc1ccc(N2CCC(n3cnnc3)CC2)cc1 (single isomer, unassigned) [Example 336]
b. CC[C@H]1CCC(c2ccccc2)S(=O)(=O)N1Cc1ccc(N2CCN(C(C)=O)CC2)cc1F (single isomer, unassigned) [Example 195]
c. C[C@@H]1CCC(c2ccccc2)S(=O)(=O)N1Cc1ccc(OC2CCN(S(C)(=O)=O)CC2)nc1 (single isomer, unassigned) [Example 50]
d. C[C@H]1CCC(c2ccccc2)S(=O)(=O)N1Cc1ccc(N2CCC(c3nnc[nH]3)CC2)cc1F (single isomer, unassigned) [Example 226]
**Query** Arrange items by their IC50 values in increasing order. List the labels, following the order given in the request.
**Result** a, b, c, d
(a: 28 nM, b: 73 nM, c: 168 nM, d: 281 nM)

P. CO[C@@H](C)C(=O)N1CCN(c2ccc(CN3[C@@H](C)CCC(c4ccccc4)S3(=O)=O)c(F)c2)CC1 (single isomer, unassigned) [Example 76]
Q. CC(=O)N1CCN(c2ccc(CN3CCCCC(c4ccccc4)S3(=O)=O)cc2)CC1 (single isomer, unassigned) [Example 307]
R. CC(=O)N1CCN(c2ccc(CN3C4CCCC4CC(c4ccccc4)S3(=O)=O)c(F)c2)CC1 (single isomer, unassigned) [Example 250]
**Query** Arrange items by their IC50 values in increasing order. List the labels, following the order given in the request.
**Result** R, P, Q
(R: 11 nM, P: 31 nM, Q: 227 nM)
